experiment: GSK_TCMDC: Inhibition Frequency Index (IFI). The number of non-kinase HTS assays where a compound showed > 50 % inhibition, expressed as a percentage of the number of such assays in which the compound was tested; type: functional
Over roughly 13,000 compounds, “IFI” has its median near 4; the highest 2% begin near 17. What follows is part of a selection rich in the highest values, with near analogues and random picks from the rest.
Recorded endpoint: IFI (%)
Give the quantity in %, number only.

• Cc1cccc2nc(-c3cccc(-c4ccc(NC(=O)C5CCCO5)cc4)c3)[nH]c12 (stereo not given) = 5.31

// returns reported IFI for input Cc1noc(C)c1-c1cccc(CNCc2cccc(-c3cccc(-c4nc5ccccc5[nH]4)c3)c2)c1
3.92

What about COc1ccc(CCN(C)CCCN2CCC(NC(=O)c3cccc4c(=O)c5ccccc5[nH]c34)CC2)cc1OC ?
5.76

What about C[C@H](Cc1ccc(OCCCCCCOc2ccc(C[C@@H](C)NC[C@H](O)c3cccc(Cl)c3)cc2)cc1)NC[C@H](O)c1cccc(Cl)c1 ?
16.9

What about Cc1cccc(CNc2nc(C)cc(N[C@@H](Cc3ccccc3)C(=O)NCc3cccc(F)c3)n2)c1 ?
19.1

What about Cc1cc(NCCC(=O)Nc2ccccc2)nc(NCCOc2ccccc2)n1 ?
4.88

What about O=S(=O)(NCCN1CCCC1)c1ccc(-c2cccc(CNCc3ccc(F)cc3)c2)s1 ?
9.65

What about N#Cc1cccc(Nc2nccc(NCC(O)c3ccc(C(F)(F)F)cc3)n2)c1 (stereo not given) ?
20.4

What about CC(CN1CCN(C)CC1)C(=O)Nc1ccc(-c2cccc(-c3nc4ccccc4[nH]3)c2)cc1 (stereo not given) ?
4.59

----------
test: GSK_TCMDC: Inhibition Frequency Index (IFI). The number of non-kinase HTS assays where a compound showed > 50 % inhibition, expressed as a percentage of the number of such assays in which the compound was tested; type: functional
The full ranking holds about 13,000 compounds; the median of “IFI” is about 4, and the highest 2% start at about 17. This is one part of a sample in which the highest values are shown more often than they occur.
Recorded endpoint: IFI (%)
Give the quantity in %, number only.

* Cc1cccc2nc(-c3ccc(-c4ccc(CNCc5ccccc5)cc4)s3)[nH]c12 | 9.62
* CC[C@H](C)CNCc1ccc(OCc2cccc(COc3ccc(CNC[C@@H](C)CC)cc3I)c2)c(I)c1 | 15.3
* Nc1c2c(nc3cc(NC(=O)c4ccc([N+](=O)[O-])cc4)ccc13)CCCC2 | 0
* Cc1[nH]c(C)c(-c2ccc(OCc3ccc(F)cc3)nc2)c(=O)c1Br | 3.57
* COc1ccc2[nH]ccc(=NN=Cc3ccc(F)cc3)c2c1 | 2.22

Note: attention shifts to another entry.
// returns reported IFI for input CCC1CN2CCc3c([nH]c4ccccc34)[C@@H]2C[C@@H]1CC1NCCc2cc(OC)c(OC)cc21 (some centres undefined)
8.33

----------
test: GSK_TCMDC: Inhibition Frequency Index (IFI). The number of non-kinase HTS assays where a compound showed > 50 % inhibition, expressed as a percentage of the number of such assays in which the compound was tested; assay type: functional
Over roughly 13,000 compounds, “IFI” has its median near 4; the highest 2% begin near 17. The sample holds the highest values, similar compounds and a random draw of the others, so the mix is not that of the screen.
Think of 5% as a floor: if IFI stands on it or above, it is 1 (yes); beneath it, 0 (no).

Recorded results for 3 compounds are shown here.
• Cc1c(N=O)cc(C(C)(C)C)c(O)c1C(=O)Nc1ccc([N+](=O)[O-])cc1Cl = 1 (yes)
• CCOC(=O)C(CO)NC(=O)c1ccc([N+](=O)[O-])o1 (stereo not given) = 0 (no)
• O=C(NCCCCN1CCC(c2ccc3ccccc3c2O)CC1)c1ccc(-c2ccc(Cl)cc2)cc1 = 1 (yes)

Now examine the next entry.
In plain terms: is recorded IFI at least 5% for COc1cc2nc(N3CCC(CNC(=O)c4ccc(-c5ccc(C#N)cc5C)cc4)CC3)nc(N)c2cc1OC ?
1 (yes)

----------
The molecules listed here are annotated with their IFI.
assay: GSK_TCMDC: Inhibition Frequency Index (IFI). The number of non-kinase HTS assays where a compound showed > 50 % inhibition, expressed as a percentage of the number of such assays in which the compound was tested; type: functional
The full ranking holds about 13,000 compounds; the median of “IFI” is about 4, and the highest 2% start at about 17. Many of the other results were omitted from the sample, so the highest values are more common in it than they were.
Give the quantity in %, number only.

* Nc1nc(N)c2c(ccc3c2ccn3Cc2ccc3c(c2)OCO3)n1 | 6.67

// returns reported IFI for input Clc1cccc(Nc2ccc3c(N4CCCCC4)ncnc3n2)c1
8.33

What about CCC(C)c1cccc(C(C)CC)c1OCCCON1C(N)=NC(N)=NC1(C)C (stereo not given) ?
24.1

What about O=C(Nc1ccc(C(F)(F)F)cc1)c1ccc(S(=O)(=O)NC2CCN(CC3CCCCC3)CC2)cc1 ?
2.41

What about NC1=NC2(CCCCC2)N(OCCCCCCN2C(=O)c3ccccc3C2=O)C(N)=N1 ?
1.43

What about CCN(CC)CCCCCNc1c2ccc(Cl)cc2nc2ccc(OC)cc12 ?
8.03

What about CCn1c(-c2nonc2N)nc2c(-c3cccc(NC(=O)NC45CC6CC(CC(C6)C4)C5)c3)ncc(OCCCN)c21 ?
16.7

What about CCn1c(-c2nonc2N)nc2c(-c3cccc(NC(=O)Nc4cccc(Cl)c4)c3)ncc(OCCCN)c21 ?
17.6

What about CCn1c(-c2nonc2N)nc2c(-c3cccc(NC(=O)Nc4cccc(C#N)c4)c3)ncc(OCCCN)c21 ?
16.7

What about CCCc1cccc(OC)c1OCCCON1C(N)=NC(N)=NC1(C)C ?
4.51

What about CCn1c(-c2nonc2N)nc2c(-c3cccc(NC(=O)Nc4cccc(C(F)(F)F)c4)c3)ncc(OCCCN)c21 ?
14.6

What about CC(c1cccc(Nc2nccc(-c3c(-c4cccc(NC(=O)c5c(F)cccc5F)c4)nn4ccccc34)n2)c1)S(C)(=O)=O (stereo not given) ?
6.31

What about N#Cc1cccc(NC(=O)Nc2ccc(-c3cccc(-c4nc5cc(F)ccc5[nH]4)c3)cc2)c1 ?
4.04

What about CCn1c(-c2nonc2N)nc2c(-c3ccccc3)ncc(OCCCNCCCN3CCOCC3)c21 ?
3.08

What about CC(C)(C)c1ccc(OCCCON2C(N)=NC(N)=NC2(C)C)cc1 ?
18.1

----------
The compounds listed here are annotated with their IFI.
experiment: GSK_TCMDC: Inhibition Frequency Index (IFI). The number of non-kinase HTS assays where a compound showed > 50 % inhibition, expressed as a percentage of the number of such assays in which the compound was tested; format: functional
The full ranking holds about 13,000 compounds; the median of “IFI” is about 4, and the highest 2% start at about 17. The entries come from a sample that favours the highest values as a whole.
Give the quantity in %, number only.

Before answering, review these 2 worked examples.
* CC(C)C[C@H](NC(=O)c1cc2ccccc2s1)C(=O)N[C@H]1CCN(Cc2ccc(OC[C@@H]3CCCN3C)c(Cl)c2)C1 | 6.67
* COc1ccccc1C1CCN(C2CCC(NC(=O)c3cc4cc(C(C)C)ccc4[nH]3)CC2)CC1 (centres undefined) | 18

// returns reported IFI for input C=C(C)Cn1cc(C2CCN(CCN3CCC(CNC(=O)c4ccc(-c5ccc(C#N)cc5)cc4)CC3)CC2)c2ccccc21
10.9

What about O=S(=O)(Nc1cccc(CCN2CCCCC2CCN2CCCC2)c1)c1ccc2ccccc2c1 (centres undefined) ?
13.1

What about COc1ccc(CNC2Cc3ccccc3C2)cc1-c1ccc(S(=O)(=O)NCc2ccccc2)s1 ?
12.3

What about Cc1cccc2nc(-c3cccc(-c4cccc(CNCc5ccc(S(C)(=O)=O)cc5)c4)c3)[nH]c12 ?
8.65

----------
The compounds listed here are annotated with their IFI.
assay: GSK_TCMDC: Inhibition Frequency Index (IFI). The number of non-kinase HTS assays where a compound showed > 50 % inhibition, expressed as a percentage of the number of such assays in which the compound was tested; type: functional
Over roughly 13,000 compounds, “IFI” has its median near 4; the highest 2% begin near 17. This excerpt belongs to a sample that is enriched for the highest values.
Give the quantity in %, number only.

// returns reported IFI for input Nc1cccc(CNCc2ccc(-c3cccc(-c4nc5cc(C(F)(F)F)ccc5[nH]4)c3)cc2)c1
15.2

----------
The molecules listed here are annotated with their IFI.
assay: GSK_TCMDC: Inhibition Frequency Index (IFI). The number of non-kinase HTS assays where a compound showed > 50 % inhibition, expressed as a percentage of the number of such assays in which the compound was tested; type: functional
Over roughly 13,000 compounds, “IFI” has its median near 4; the highest 2% begin near 17. The full list was thinned out, with the highest values kept by preference.
Give the quantity in %, number only.

* O=C(Nc1cc(C(F)(F)F)cc(C(F)(F)F)c1)c1cc(C(F)(F)F)cc(C(F)(F)F)c1 | 3.65
* FC(F)(F)COc1ccc(CCNCCCCNCCc2ccc(OCC(F)(F)F)c3ccccc23)c2ccccc12 | 20.3
* N=C(N)NC(=O)Nc1ccc(Cl)c(Cl)c1 | 1.52
* Cc1ccccc1CCNC(=O)c1ccc(N2CCN(c3ccncc3)CC2)nc1 | 2.08
* Cc1cccc2nc(-c3cccc(-c4cccc(CN5CCCC5CN)c4)c3)[nH]c12 (stereo unspecified) | 4.95
* O=C(Nc1ccc(Br)cc1)c1cc(Br)ccc1NS(=O)(=O)c1cc(C(F)(F)F)cc(C(F)(F)F)c1 | 19.9
* FC(F)(F)COc1c(CCNCCCCNCCc2ccc3ccccc3c2OCC(F)(F)F)ccc2ccccc12 | 19.3
* Fc1ccccc1C=NNc1ccnc2cc(Cl)ccc12 | 1.48
* CCCCN(CCCC)CCCN(CCCN(CCCC)CCCC)c1cc(C)nc(Nc2ccc3cc(Br)ccc3c2)n1 | 15.2
* COc1ccc(C(=O)CCC(=O)N(Cc2ccc(-c3ccc(CNCCc4ccccc4)cn3)cc2)C(C)CN(C)C)cc1F (stereo unspecified) | 6.9

// returns reported IFI for input Cc1ccccc1Cc1cccc(/N=C(\N)Nc2ccc(Cl)cc2)n1
31.2

What about Fc1ccc2[nH]c(-c3cccc(-c4ccc(CNCC5CCCO5)cc4)c3)nc2c1 (stereo unspecified) ?
5.88

What about CSc1ccc2ccccc2c1CCNCCCCNCCc1c(SC)ccc2ccccc12 ?
17

What about CCN(CCCN1CCCCC1)c1cc(C)nc(Nc2ccc(C)cc2)n1 ?
2.56

What about Oc1ccc2ccccc2c1CNCCC1CCCCC1 ?
2.96

What about O=C(Nc1ccc(C(F)(F)F)cc1)c1cc(Br)cnc1NCCCn1ccnc1 ?
1.67

What about Cc1cc(N)nc2ccc(-c3ccc(CN)cc3)cc12 ?
4.83

What about FC(F)(F)COc1c(CNCCCCCCNCc2ccc3ccccc3c2OCC(F)(F)F)ccc2ccccc12 ?
14.9

What about O=[N+]([O-])c1ccc(CNCCCCCCNCc2ccc([N+](=O)[O-])c3ccccc23)c2ccccc12 ?
10.3

What about c1ccc2c(CNCCCCCCNCc3c(OCC4CC4)ccc4ccccc34)c(OCC3CC3)ccc2c1 ?
18.7

What about COc1ccc(CCNCCCCNCCc2ccc(OC)c3ccccc23)c2ccccc12 ?
13.9

What about CCCCCCCCNCc1c(O)ccc2ccccc12 ?
7.69

What about O=C(NCCc1cccc(Cl)c1Cl)c1cnc(N2CCN(c3ccncc3)CC2)c(Cl)c1 ?
20

What about COc1cc(NC(=O)Nc2ccc(Br)cc2C(=O)Nc2ccc(Br)cc2)cc(OC)c1OC ?
1.55

What about Cc1cccc(NC(=O)NCc2ccccc2)n1 ?
0.78

What about COc1ccc(-c2cccc(NC(=O)c3cccc(C#N)c3)c2)cc1CN1CCC(O)CC1 ?
0

What about N/C(=N\c1cccc(Cc2ccccc2)n1)NCc1ccccc1 ?
21

What about CCOc1ccc2ccccc2c1CNCCCCCCNCc1c(OCC)ccc2ccccc12 ?
13

What about CNC(=O)c1cnc(Nc2ccc(OCC(O)CN(C)C)cc2)nc1Nc1cccc(OC)c1 (stereo unspecified) ?
2.22
